assay: Clearance in minipig at 1 mg/kg, iv bolus measured over 240 hrs; type: ADME, organism-based, Sus scrofa domesticus; settings: pig, in vivo
experimentalEndpoint: clearance (mL/min/kg)

- smilesRepr: "Cc1nnc(N2C[C@H]3CC[C@@H](C2)[C@@H]3Nc2nc3c(O[C@@H](C)C(F)(F)F)ccc(C(F)(F)F)n3n2)o1"
  unitAbbreviation: "mL/min/kg"
  readoutNumber: 3.35

====

solubility overview
assay: Solubility of the compound in fasted state simulated intestinal fluid; format: physicochemical; settings: simulated gi fluid

- smilesRepr: "Cc1noc(N2C[C@H]3CC[C@@H](C2)[C@@H]3Nc2nc3c(OCC(F)(F)F)ccc(C(F)(F)F)n3n2)n1"
  solubility [µg/mL]: 12
- smilesRepr: "Cc1nnc(N2C[C@H]3CC[C@@H](C2)[C@@H]3Nc2nc3c(O[C@@H](C)C(F)(F)F)ccc(C(F)(F)F)n3n2)o1"
  solubility [µg/mL]: 234
- smilesRepr: "Cc1cc(N2C[C@H]3CC[C@@H](C2)[C@@H]3Nc2nc3c(OCC(F)F)ccc(C(F)(F)F)n3n2)ncn1"
  solubility [µg/mL]: 13
